Numbers sourced from the supplement of paper PMC10307832.

test system: H3255; assay: relative viability (nuclei count vs DMSO), 5 days (fraction); higher = more cells survive; conditions: first compound 0.01 µM
Give relative viability for every item shown.
Answer using only a numeral; do not append any unit.

Query block: Consider the molecule shown here: O=c1cc(N2CCOCC2)oc2c(-c3cccc4c3sc3ccccc34)cccc12 + Nc1nc2[nH]cc(CCc3ccc(C(=O)N[C@@H](CCC(=O)O)C(=O)O)cc3)c2c(=O)[nH]1 [Pemetrexed] (partner 0.2 µM) What is its recorded relative viability?
Result block: 0.552

Query block: Cool, now CCN(CC)CCCCNc1ncc2cc(-c3cc(OC)cc(OC)c3)c(NC(=O)NC(C)(C)C)nc2n1 + Nc1ncn([C@H]2C[C@H](O)[C@@H](CO)O2)c(=O)n1 [Decitabine] (partner 2 µM)
Result block: 0.453

Query block: Same lookup for O=c1cc(N2CCOCC2)oc2c(-c3cccc4c3sc3ccccc34)cccc12 + CC1(C)CCC(c2ccc(Cl)cc2)=C(CN2CCN(c3ccc(C(=O)NS(=O)(=O)c4ccc(N[C@H](CCN5CCOCC5)CSc5ccccc5)c(S(=O)(=O)C(F)(F)F)c4)cc3)CC2)C1 [Navitoclax] (partner 0.5 µM) , please.
Result block: 0.557
